// data source = the supplement of paper PMC7125110

self-cleavage kobs at 2500 uM GlcN6P overview
B1: glmS ribozyme (parent)
chain: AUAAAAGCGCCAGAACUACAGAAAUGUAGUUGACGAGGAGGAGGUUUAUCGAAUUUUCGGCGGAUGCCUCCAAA

variants of: B1; assay: self-cleavage kobs at 2500 uM GlcN6P; higher = faster cleavage; RNA array; conditions: with glucosamine-6-phosphate
This sample holds only a part of the variants without activity.
property.measured: self-cleavage kobs at 2500 uM GlcN6P

[
  {
    "mutation.notation": "C10U G40A A52C G60U",
    "val": "< 1e-05 s⁻¹"
  },
  {
    "mutation.notation": "G35U C61A",
    "val": "< 1e-05 s⁻¹"
  },
  {
    "mutation.notation": "C16G G37U G44U U47A G51C C68A",
    "val": "< 1e-05 s⁻¹"
  },
  {
    "mutation.notation": "A6U G35U U45A U57A",
    "val": "< 1e-05 s⁻¹"
  },
  {
    "mutation.notation": "G7A C10A A48G",
    "val": "< 1e-05 s⁻¹"
  },
  {
    "mutation.notation": "G41U U47G U49A G66C C71U",
    "val": "< 1e-05 s⁻¹"
  },
  {
    "mutation.notation": "C11G A42U G59U",
    "val": "< 1e-05 s⁻¹"
  },
  {
    "mutation.notation": "G9A C16G G63A A64G",
    "val": "< 1e-05 s⁻¹"
  },
  {
    "mutation.notation": "C16G A36G U69G",
    "val": "4.76e-05 s⁻¹"
  },
  {
    "mutation.notation": "A12U U31A C50G C61U",
    "val": "6.19e-05 s⁻¹"
  },
  {
    "mutation.notation": "U46C U57C",
    "val": "4.88e-05 s⁻¹"
  },
  {
    "mutation.notation": "C34U U46G G66U",
    "val": "< 1e-05 s⁻¹"
  },
  {
    "mutation.notation": "A12U U54A G60C U65A",
    "val": "< 1e-05 s⁻¹"
  },
  {
    "mutation.notation": "A6U A15U A36G A52C",
    "val": "< 1e-05 s⁻¹"
  },
  {
    "mutation.notation": "A14G A33C C70U",
    "val": "< 1e-05 s⁻¹"
  },
  {
    "mutation.notation": "G13C A33G A48C",
    "val": "< 1e-05 s⁻¹"
  },
  {
    "mutation.notation": "C16U U31C",
    "val": "0.0036 s⁻¹"
  },
  {
    "mutation.notation": "G35A U45C C71U",
    "val": "< 1e-05 s⁻¹"
  },
  {
    "mutation.notation": "C8A A39G A52U",
    "val": "< 1e-05 s⁻¹"
  },
  {
    "mutation.notation": "U31C C58A A64C",
    "val": "< 1e-05 s⁻¹"
  },
  {
    "mutation.notation": "A39U G43U C50U",
    "val": "< 1e-05 s⁻¹"
  },
  {
    "mutation.notation": "G44A A53C",
    "val": "5.83e-05 s⁻¹"
  },
  {
    "mutation.notation": "G40U U45C",
    "val": "0.000729 s⁻¹"
  },
  {
    "mutation.notation": "C11U G37U G43U G63U",
    "val": "< 1e-05 s⁻¹"
  },
  {
    "mutation.notation": "A64G G66U C70U",
    "val": "0.000872 s⁻¹"
  },
  {
    "mutation.notation": "G9A C58A",
    "val": "< 1e-05 s⁻¹"
  },
  {
    "mutation.notation": "C10A A14G U69G",
    "val": "6.53e-05 s⁻¹"
  },
  {
    "mutation.notation": "A12U G29U G37A U55A",
    "val": "0.000446 s⁻¹"
  },
  {
    "mutation.notation": "U56G C70U",
    "val": "0.000943 s⁻¹"
  },
  {
    "mutation.notation": "U30C G32U A64G",
    "val": "0.000195 s⁻¹"
  },
  {
    "mutation.notation": "A6C C16A",
    "val": "< 1e-05 s⁻¹"
  },
  {
    "mutation.notation": "G13C G29C U55A",
    "val": "8.97e-05 s⁻¹"
  },
  {
    "mutation.notation": "C34A G41A U47C",
    "val": "< 1e-05 s⁻¹"
  },
  {
    "mutation.notation": "G9U C10G",
    "val": "< 1e-05 s⁻¹"
  },
  {
    "mutation.notation": "G32C G35U A36C C68A",
    "val": "< 1e-05 s⁻¹"
  },
  {
    "mutation.notation": "C11G A12U",
    "val": "< 1e-05 s⁻¹"
  }
]
